- Target: Cholesteryl ester transfer protein (Oryctolagus cuniculus) (UniProt P22687)
- Sequence (P22687 whole entry): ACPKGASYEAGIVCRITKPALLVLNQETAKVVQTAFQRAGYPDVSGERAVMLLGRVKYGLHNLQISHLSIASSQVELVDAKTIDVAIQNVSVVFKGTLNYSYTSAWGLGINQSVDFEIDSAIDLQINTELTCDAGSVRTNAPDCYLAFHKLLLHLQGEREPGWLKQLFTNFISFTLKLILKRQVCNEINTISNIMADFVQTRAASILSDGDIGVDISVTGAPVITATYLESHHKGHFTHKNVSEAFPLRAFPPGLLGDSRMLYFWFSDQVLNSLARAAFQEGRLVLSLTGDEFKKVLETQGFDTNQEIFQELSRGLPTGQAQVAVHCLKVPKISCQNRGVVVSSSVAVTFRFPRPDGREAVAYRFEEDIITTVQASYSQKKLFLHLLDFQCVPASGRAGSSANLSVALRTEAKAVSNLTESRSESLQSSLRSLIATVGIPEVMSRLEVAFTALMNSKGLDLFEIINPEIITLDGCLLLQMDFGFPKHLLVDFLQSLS
- Protocol description: Inhibition of Oryctolagus cuniculus (rabbit) CETP-mediated cholesteryl ester transfer at 10 uM after 1 hr by fluorescence assay
// map inhibition to label using one (below 20%), two (20% to below 30%), three (30% or more)

// known answers, use as guide
Mol smiles: Cc1ccc(S(=O)(=O)Oc2ccc(N(Cc3cccc(Br)c3)Cc3cccc(Br)c3)cc2)cc1
Group: two
//
Mol smiles: Cc1ccc(S(=O)(=O)Oc2ccc(N(Cc3cccc(C)c3)Cc3cccc(C)c3)cc2)cc1
Group: two
//
Mol smiles: COc1cccc(COc2ccc(NS(=O)(=O)c3ccc(C)cc3)cc2)c1
Group: two
//
Mol smiles: Cc1ccc(S(=O)(=O)Oc2ccc(N(Cc3cccc(Cl)c3)Cc3cccc(Cl)c3)cc2)cc1
Group: three
//
Mol smiles: Cc1ccc(S(=O)(=O)Nc2ccc(OCc3ccc(C(F)(F)F)cc3)cc2)cc1
Group: one

[ask] Category of Cc1ccc(S(=O)(=O)Nc2ccc(OCc3ccc(Br)cc3)cc2)cc1 :
[reply] one

[ask] Record: Cc1ccc(S(=O)(=O)Oc2ccc(N(Cc3ccc(Cl)cc3)Cc3ccc(Cl)cc3)cc2)cc1
[reply] two
